// provenance: patent US10301305B2

# IC50 per record follows
# STUDY SYSTEM: S. Agalactiae DltA (Streptococcus agalactiae serotype III (strain NEM316))
# ASSAY PROCEDURE: in vitro DltA activity assay (luminescence), S. agalactiae DltA
# Format: biochemical
# EXPERIMENTAL CONDITIONS: recombinant DltA, 30 min pre-incubation, 0.5 mM D-Alanine, 0.5-5 μM ATP; read-out: S. Agalactiae DltA IC50
Provide only the numeric value, understood in µM.

Check out these entries, answers already filled in.
| COMPOUND | STUDY SYSTEM | RECORDED RESULT |
| --- | --- | --- |
| N#Cc1c(NCCO)cc(-c2ccc3c(c2)ncn3C2CCCCC2)c2nc[nH]c12 | S. Agalactiae DltA (Streptococcus agalactiae serotype III (strain NEM316)) | 5.4 |
| CN(C)CCN(C)c1cc(-c2cncc(N3CCCC3)c2)c2nc[nH]c2c1C(N)=O | S. Agalactiae DltA (Streptococcus agalactiae serotype III (strain NEM316)) | 2.1 |
| O=[N+]([O-])c1c(N2CC[C@H](CO)C2)cc(-c2ccc3c(c2)ncn3C2CCCCC2)c2nc[nH]c12 | S. Agalactiae DltA (Streptococcus agalactiae serotype III (strain NEM316)) | 6.3 |
| O=C(NO)c1c(F)cc(-c2ccc3c(c2)ncn3C2CCCCC2)c2nc[nH]c12 | S. Agalactiae DltA (Streptococcus agalactiae serotype III (strain NEM316)) | 11 |

Req: Return reported IC50; argument: CN(C)C1CCCN(c2cc(-c3cnc4c(c3)CCCO4)c3nc[nH]c3c2C(N)=O)C1 (centres unmarked)
Resp: 0.18

Req: Try this compound too: `CN(C)CCN(C)c1cc(-c2ccc3c(c2)ncn3CC(F)F)c2nc[nH]c2c1C(N)=O`
Resp: 0.78

Req: Try this compound too: `COCCn1cnc2cc(-c3cc(N(C)CCN(C)C)c(C(N)=O)c4[nH]cnc34)ccc21`
Resp: 0.84

Req: Try this compound too: `CN1CCN(c2cc(-c3ccc4c(c3)ncn4C3CCCCC3)c3nc[nH]c3c2C(N)=O)CC1`
Resp: 0.5

---

# STUDY SYSTEM: S. Agalactiae DltA (Streptococcus agalactiae serotype III (strain NEM316), UniProt Q8VM67)
# ASSAY PROCEDURE: in vitro DltA activity assay (luminescence), S. agalactiae DltA
# Type: biochemical
# EXPERIMENTAL CONDITIONS: recombinant DltA, 30 min pre-incubation, 0.5 mM D-Alanine, 0.5-5 μM ATP; read-out: S. Agalactiae DltA IC50
Mark Condition met for IC50 under 1000 nM, Condition not met if at or over.

| COMPOUND | ASSIGNED LABEL |
| --- | --- |
| OC[C@H]1CCN(c2cc3[nH]cnc3c(-c3ccc4c(c3)ncn4C3CCCCC3)n2)C[C@@H]1O | Condition not met |
| N#Cc1c(N2CC[C@H](CO)C2)cc(-c2ccc3c(c2)ncn3C2CCCCC2)c2nc[nH]c12 | Condition not met |
| C[C@H]1CCCC(n2cnc3cc(-c4cc(N(C)CCN(C)C)c(C(N)=O)c5[nH]cnc45)ccc32)C1 (mixture of isomers) | Condition met |
| CN(C)CCN(C)c1cc(-c2ccc(N(C)C)nc2)c2nc[nH]c2c1C(N)=O | Condition not met |
| OCCC1CCN(c2cc(-c3ccc4c(c3)ncn4C3CCCCC3)c3nc[nH]c3n2)C1 (stereo not shown) | Condition not met |

Req: Answer whether the compound `OC[C@H]1CCN(c2cc(-c3ccc4c(c3)ncn4C3CCCCC3)c3nc[nH]c3n2)C[C@@H]1O` has IC50 strictly less than 1000 nM
Resp: Condition met

Req: Try this compound too: `OCC1CCN(c2cc(-c3ccc4c(c3)ncn4C3CCCCC3)c3nc[nH]c3n2)CC1`
Resp: Condition not met

Req: Try this compound too: `CN(CCO)c1cc(-c2cnc3c(c2)CCCO3)c2nc[nH]c2c1C(N)=O`
Resp: Condition not met

Req: Try this compound too: c1nc2c(-c3ccc4c(c3)ncn4C3CCCCC3)cc(N3CC4CNCC4C3)nc2[nH]1 (stereo not shown)
Resp: Condition met

Req: Try this compound too: `OCC1(CO)CCN(c2cc(-c3ccc4c(c3)ncn4C3CCCCC3)c3nc[nH]c3c2)CC1`
Resp: Condition met

Req: Try this compound too: `CCn1cnc2cc(-c3cc(OCCN(C)C)c(C(N)=O)c4[nH]cnc34)ccc21`
Resp: Condition not met

Req: Try this compound too: `O=[N+]([O-])c1c(N2CC[C@H](CO)[C@@H](O)C2)cc(-c2ccc3c(c2)ncn3C2CCCCC2)c2nc[nH]c12`
Resp: Condition not met

Req: Try this compound too: `NC(=O)c1c(N2CC[C@H](CO)C2)cc(-c2ccc3c(c2)ncn3C2CCCCC2)c2nc[nH]c12`
Resp: Condition met

Req: Try this compound too: CN1CCCC(Oc2cc(-c3cnc4c(c3)CCCO4)c3nc[nH]c3c2C(N)=O)C1 (stereo not shown)
Resp: Condition not met

Req: Try this compound too: CN1CCCC1COc1cc(-c2cnc3c(c2)CCCO3)c2nc[nH]c2c1C(N)=O (stereo not shown)
Resp: Condition met

---

# STUDY SYSTEM: S. aureus DltA (Staphylococcus aureus (strain NCTC 8325 / PS 47), UniProt Q2FZW6)
# ASSAY PROCEDURE: in vitro DltA activity assay (luminescence), S. aureus DltA
# Format: biochemical
# EXPERIMENTAL CONDITIONS: recombinant DltA, 30 min pre-incubation, 0.5 mM D-Alanine, 0.5-5 μM ATP; read-out: S. aureus DltA IC50
# pIC50 per record follows
Keep in mind that pIC50 stands for -log10 of concentration in molar terms.

Check out these entries, answers already filled in.
| COMPOUND | STUDY SYSTEM | pIC50 |
| --- | --- | --- |
| CN(C)CCN(C)c1cc(-c2cnc3c(c2)CCCO3)c2nc[nH]c2c1C(N)=O | S. aureus DltA (Staphylococcus aureus (strain NCTC 8325 / PS 47), UniProt Q2FZW6) | 7.41 |
| CN1CCN(c2cc(-c3ccc4c(c3)ncn4C3CCCCC3)c3nc[nH]c3c2C(N)=O)CC1 | S. aureus DltA (Staphylococcus aureus (strain NCTC 8325 / PS 47), UniProt Q2FZW6) | 7.47 |
| OC[C@H]1CCN(c2cc3[nH]cnc3c(-c3ccc4c(c3)ncn4C3CCCCC3)n2)C[C@@H]1O | S. aureus DltA (Staphylococcus aureus (strain NCTC 8325 / PS 47), UniProt Q2FZW6) | 7.48 |

Req: Return reported pIC50; argument: `O=[N+]([O-])c1c(N2CC[C@H](CO)C2)cc(-c2ccc3c(c2)ncn3C2CCCCC2)c2nc[nH]c12`
Resp: 7.07

Req: Try this compound too: `CN(C)CCN(C)c1cc(-c2ccc3c(c2)ncn3CC(F)F)c2nc[nH]c2c1C(N)=O`
Resp: 7.85

Req: Try this compound too: `OC[C@H]1CCN(c2cc(-c3ccc4c(c3)ncn4C3CCCCC3)c3nc[nH]c3n2)C[C@@H]1O`
Resp: 7.18

---

# pIC50 per record follows
# STUDY SYSTEM: S. aureus DltA (Staphylococcus aureus (strain NCTC 8325 / PS 47))
# ASSAY PROCEDURE: in vitro DltA activity assay (luminescence), S. aureus DltA
# Format: biochemical
# EXPERIMENTAL CONDITIONS: recombinant DltA, 30 min pre-incubation, 0.5 mM D-Alanine, 0.5-5 μM ATP; read-out: S. aureus DltA IC50
Keep in mind that pIC50 stands for -log10 of concentration in molar terms.

Req: Return reported pIC50; argument: `CN(C)CCN(C)c1cc(-c2ccc3c(c2)ncn3-c2ccccc2)c2nc[nH]c2c1C(N)=O`
Resp: 7.77

Req: Try this molecule too: `CN(CCO)c1cc(-c2ccc3c(c2)ncn3[C@@H]2CCCC[C@H]2F)c2nc[nH]c2c1C(N)=O`
Resp: 7.82

Req: Try this molecule too: `OCC1(CO)CCN(c2cc(-c3ccc4c(c3)ncn4C3CCCCC3)c3nc[nH]c3n2)CC1`
Resp: 7.96

Req: Try this molecule too: CN(C)CCN(C)c1cc(-c2ccc3c(c2)ncn3C2CCCOC2)c2nc[nH]c2c1C(N)=O (centres unmarked)
Resp: 8.16

Req: Try this molecule too: `CN(C)CCN(C)c1cc(-c2ccc3c(c2)ncn3C2CCC(F)(F)CC2)c2nc[nH]c2c1C(N)=O`
Resp: 7.89

---

# STUDY SYSTEM: S. Agalactiae DltA (Streptococcus agalactiae serotype III (strain NEM316), UniProt Q8VM67)
# ASSAY PROCEDURE: in vitro DltA activity assay (luminescence), S. agalactiae DltA
# Format: biochemical
# EXPERIMENTAL CONDITIONS: recombinant DltA, 30 min pre-incubation, 0.5 mM D-Alanine, 0.5-5 μM ATP; read-out: S. Agalactiae DltA IC50
pIC50: −log10 of the molar value.
Would you please tag the item criterion met when its pIC50 is 6 or above, and criterion not met when it is below?

Use these answered entries as a reference point.
| COMPOUND SMILES | STUDY SYSTEM | ASSIGNED LABEL |
| --- | --- | --- |
| CN(C)CCN(CCO)c1cc(-c2ccc3c(c2)ncn3C2CCCCC2)c2nc[nH]c2c1C(N)=O | S. Agalactiae DltA (Streptococcus agalactiae serotype III (strain NEM316), UniProt Q8VM67) | criterion not met |
| NC(=O)c1c(N2CCC(CO)(CO)CC2)cc(-c2ccc3c(c2)ncn3C2CCCCC2)c2nc[nH]c12 | S. Agalactiae DltA (Streptococcus agalactiae serotype III (strain NEM316), UniProt Q8VM67) | criterion met |
| CN(C)CCOc1cc(-c2ccc3c(c2)ncn3C2CCCCC2)c2nc[nH]c2c1C#N | S. Agalactiae DltA (Streptococcus agalactiae serotype III (strain NEM316), UniProt Q8VM67) | criterion not met |
| CN(C)CCN(C)c1cc(-c2cnc3c(c2)CCCO3)c2nc[nH]c2c1C(N)=O | S. Agalactiae DltA (Streptococcus agalactiae serotype III (strain NEM316), UniProt Q8VM67) | criterion met |
| CN(CCO)c1cc(-c2ccc3c(c2)ncn3C2CCCCC2)c2nc[nH]c2c1C#N | S. Agalactiae DltA (Streptococcus agalactiae serotype III (strain NEM316), UniProt Q8VM67) | criterion not met |

Req: pIC50 >= 6 for `OCC1(CO)CCN(c2cc(-c3ccc4c(c3)ncn4C3CCCCC3)c3nc[nH]c3n2)CC1` ?
Resp: criterion met

Req: Try this compound too: `NC(=O)c1c(F)cc(-c2ccc3c(c2)ncn3C2CCCCC2)c2nc[nH]c12`
Resp: criterion not met

Req: Try this compound too: `N#Cc1c(N2CCC(CO)(CO)CC2)cc(-c2ccc3c(c2)ncn3C2CCCCC2)c2nc[nH]c12`
Resp: criterion not met

Req: Try this compound too: `CN(CCN1CCCC1)c1cc(-c2ccc3c(c2)ncn3C2CCCCC2)c2nc[nH]c2c1C(N)=O`
Resp: criterion met

Req: Try this compound too: `CCn1cnc2cc(-c3nc(N(C)CCN(C)C)c(C(N)=O)c4[nH]cnc34)ccc21`
Resp: criterion not met
